# Test system: SPNE 9912
# MEASUREMENT DESCRIPTION: In vitro MIC by standard agar dilution method, SPNE 9912
# Assay type: cell-based
# EXPERIMENTAL CONTEXT: agar dilution, Mueller Hinton agar, incubated overnight at 35° C.; lowest concentration that inhibits visible growth; read-out: SPNE 9912 MIC (Minimum Inhibitory Concentration)
Could you please report measured MIC for the items listed next?
Record the value in µg/mL, omitting the unit from your answer.

Report MIC, nothing else, for this compound: `CC(=O)NC[C@H]1CN(c2cc(F)c(N3CCN(C(=O)CCCC#Cc4ccc(CN)cc4)CC3)c(F)c2F)C(=O)O1`
2

Answer with reported MIC of `CC(=O)NC[C@H]1CN(c2ccc(N3CCN(C(=O)CCCC#Cc4ccc(C(C)=O)cc4)CC3)c(F)c2)C(=O)O1`
2

Using known records, supply MIC for `CC(=O)NC[C@H]1CN(c2ccc(N3CCN(C(=O)CCCC#Cc4ccc(Cn5ccnc5)cc4)CC3)c(F)c2)C(=O)O1`
2

Give the measured MIC for `CC(=O)NC[C@H]1CN(c2ccc(N3CCN(C(=O)CCC#Cc4cccc(O)c4)CC3)c(F)c2)C(=O)O1`
1

---

# Test system: HINF 30063
# MEASUREMENT DESCRIPTION: In vitro MIC by standard agar dilution method, HINF 30063
# Type: cell-based, H. influenzae
# EXPERIMENTAL CONTEXT: Haemophilus influenzae; agar dilution, Mueller Hinton agar, incubated overnight at 35° C.; lowest concentration that inhibits visible growth; read-out: HINF 30063 MIC (Minimum Inhibitory Concentration)
Would you kindly list MIC for each of these compounds?

Using known records, supply MIC for `CC(=O)NC[C@H]1CN(c2ccc(N3CCN(C(=O)CCCC#Cc4cccc(C#N)c4)CC3)c(F)c2)C(=O)O1`
> 64 µg/mL

Return the recorded MIC value; entry: `CC(=O)NC[C@H]1CN(c2ccc(N3CCN(C(=O)CCCCC#Cc4cccc(O)c4)CC3)c(F)c2)C(=O)O1`
> 64 µg/mL

Dear colleague, please send me the reported MIC for `CC(=O)NC[C@H]1CN(c2ccc(N3CCN(C(=O)CCCC#Cc4ccc(/C(N)=N/O)cc4)CC3)c(F)c2)C(=O)O1.Cl` when you can.
> 64 µg/mL

Query MIC for `CC(=O)NC[C@H]1CN(c2ccc(N3CCN(C(=O)CCC#Cc4ccc(O)cc4)CC3)c(F)c2)C(=O)O1`
64 µg/mL

Provide MIC value for the following compound: `CC(=O)NC[C@H]1CN(c2cc(F)c(N3CCN(C(=O)CCCC#Cc4ccc(CN)cc4)CC3)c(F)c2F)C(=O)O1`
32 µg/mL

---

# Tested on: SPNE 9912
# MEASUREMENT DESCRIPTION: In vitro MIC by standard agar dilution method, SPNE 9912
# Assay type: cell-based
# EXPERIMENTAL CONTEXT: agar dilution, Mueller Hinton agar, incubated overnight at 35° C.; lowest concentration that inhibits visible growth; read-out: SPNE 9912 MIC (Minimum Inhibitory Concentration)
For each record, write down the corresponding MIC.
Expressed in µg/mL, but write only the number.

Recall and state the measured MIC for `CCC(=O)NC[C@H]1CN(c2ccc(C3(C)CN(C(=O)CCCC#Cc4cccc(CN)c4)C3)cc2)C(=O)O1` .
2

For the molecule `COC(=O)[C@@H](N)Cc1ccc(C#CCCC(=O)N2CCN(c3ccc(N4C[C@H](CNC(C)=O)OC4=O)cc3F)CC2)cc1` , give its measured MIC value.
4

Respond only with MIC recorded for `C#CCCCCC(=O)N1CCN(c2ccc(N3C[C@H](CNC(C)=O)OC3=O)cc2F)CC1`
1

Consider the molecule `CC(=O)NC[C@H]1CN(c2ccc(N3CCN(C(=O)CCCCC#Cc4ccc(CN)cc4)CC3)c(F)c2)C(=O)O1` and give its recorded MIC.
0.25

Answer with the recorded MIC for the molecule listed here: `CC(=O)NC[C@H]1CN(c2ccc(N3CCN(C(=O)CCCC#Cc4cccc(C#N)c4)CC3)c(F)c2)C(=O)O1`
2

Fill in MIC for record `CC(=O)NC[C@H]1CN(c2ccc(N3CCN(C(=O)CCCCC#Cc4cccc(O)c4)CC3)c(F)c2)C(=O)O1`
2

Respond only with MIC recorded for `CC(=O)NC[C@H]1CN(c2ccc(N3CCN(C(=O)CCC#Cc4ccc(O)cc4)CC3)c(F)c2)C(=O)O1`
1
